molecular target: LSD1 (Homo sapiens, UniProt O60341)
Criterion: IC50 strictly under 20 nM. Met: satisfied. Not met: not satisfied.

compound_structure_string=CN1CCN(c2nc(CCCN[C@@H]3C[C@H]3c3ccc(F)cc3)c[nH]c2=O)CC1=O assigned_label="not satisfied"
compound_structure_string=O=c1[nH]cc(CCCN[C@@H]2C[C@H]2c2ccccc2)nc1N1CCS(=O)(=O)CC1 assigned_label=satisfied
compound_structure_string=O=c1c(N2CCNCC2)nc(CCCN[C@@H]2C[C@H]2c2ccc(F)cc2)cn1-c1ccc(-n2ccnn2)cc1 assigned_label=satisfied
compound_structure_string=O=C1CN(c2nc(CCCN[C@@H]3C[C@H]3c3ccc(F)cc3)c[nH]c2=O)CCN1 assigned_label=satisfied
compound_structure_string=O=c1c(N2CCNCC2)nc(CCCN[C@@H]2C[C@H]2c2ccc(F)cc2)cn1-c1ccc(-c2ncccn2)cc1 assigned_label=satisfied
compound_structure_string=O=c1[nH]cc(CCCN[C@@H]2C[C@H]2c2ccc(F)cc2)nc1N1CCNCC1 assigned_label=satisfied
